The measurements presented in this section are drawn from PubChem BioAssay (NCI).

# Tested on: UO-31 renal
# assay method text: NCI-60 one-dose screen, 48 h (100 = growth as untreated, 0 = no growth, -100 = all killed)
# study conditions: 10 µM
This is part of a sample that, as a whole, favours compounds with a hit. Of some 83,000 tested, about 20% had one in any assay.
value type: growth (%)
Give the value in % but do not write % after it.

See these solved cases before continuing.
INSERT INTO assay_data (molecule, target, readout_number) VALUES
  ('CCOCCOCCOCCOCCOCCOCCOCCOCCOCCO (tested in a mixture with another compound)', 'UO-31 renal', 19.1),
  ('COc1ccc(-c2nc3sc(-c4ccccc4)c(-c4ccccc4)n3c2/C=C/C(=O)c2ccccn2)cc1', 'UO-31 renal', 66),
  ('Cc1ccc(-c2nc(/C=C3/C(=O)N(C)c4ccc(F)cc43)c3ccccn23)cc1', 'UO-31 renal', 85.8),
  ('O=C1OCC2=C1C(c1cccc(Cl)c1)c1cc3c(cc1N2CCO)CCC3 (stereo not given)', 'UO-31 renal', 19),
  ('Cc1ccc(C(=O)N2C/C(=C/c3ccccc3)C(=O)/C(=C/c3ccccc3)C2)cc1', 'UO-31 renal', 56.6);

Notebook: pull reported growth for UO-31 renal, entry `Cc1cc(Nc2ccc(Cl)cc2)nc(NCCCNc2ccnc3cc(Cl)ccc23)n1`
-40.1
